- Tested on: K562 CRISPRi cells
- assay name: Constant region variant library pooled growth screen, K562
- Format: cell-based, human
- stated conditions: sgRNA constant region variants; relative to the original, un-modified constant region cr995; CRISPRi
Label fulfilled when Mean relative activity is at or above 0.4; otherwise label not fulfilled.

Lookup: Hello, I need to know if cr813 (nucleic acid, listed as DNA, chemistry not fully specified) guide: GTTTAAGAGCTAAGCTGGAAACAGCATAGCAAGTTTAAATAAGGCTAGTCCGTTATCTACTTGAAAAAGTGGCACCGAGTCGGTGCT has measured Mean relative activity not below 0.4. Thanks!
Found: not fulfilled

Lookup: Hello, I need to know if cr523 (nucleic acid, listed as DNA, chemistry not fully specified) guide: GTTTAAGAGCTAAGCTGGAAACAGCATAGCAAGCTTAAATAAGGCTAGTCCGTTATCAACTTGAAAAAGTGTCACCGAGTCGGTGAT has measured Mean relative activity not below 0.4. Thanks!
Found: not fulfilled

Lookup: Hello, I need to know if cr770 (nucleic acid, listed as DNA, chemistry not fully specified) guide: GTTTAAGAGCTAAGCTGGAAACAGCATAGCAAGCTTAAATAAGGCTAGTCCGTTATCAACTTGAAAAAGTGGAACCGAGTCGGTTCT has measured Mean relative activity not below 0.4. Thanks!
Found: fulfilled

Lookup: Hello, I need to know if cr349 (nucleic acid, listed as DNA, chemistry not fully specified) guide: GTTTAAGAGCTAAGCTGGAAACAGCATAGCAAGTTTAAATAAGGCTAGTCCGTTATCAACTTGAAAAAGTGGCACCGAGTTGGTGCT has measured Mean relative activity not below 0.4. Thanks!
Found: not fulfilled

Lookup: Hello, I need to know if cr351 (nucleic acid, listed as DNA, chemistry not fully specified) guide: GTTTAAGAGCTAAGCTGGAAACAGCATAGCAAGTTTAAATAAGGCTCGTCCGTTATAAACTTAAAAAAGTGGCACCGAGTCGGTGCT has measured Mean relative activity not below 0.4. Thanks!
Found: not fulfilled

Lookup: Hello, I need to know if cr255 (nucleic acid, listed as DNA, chemistry not fully specified) guide: GTTTAAGAGCTAAGCTGGAAACAGCATAGCAAGCTTAAATAAGGCTAGTCCGTTATCAACTTGAAAAAGTGGGACCGAGTCGGTCCT has measured Mean relative activity not below 0.4. Thanks!
Found: fulfilled

Lookup: Hello, I need to know if cr201 (nucleic acid, listed as DNA, chemistry not fully specified) guide: GTTTAAGAGCTAAGCTGGAAACAGCATAGCAAGTTTAAATAAAGCTAGTCTGTTATCAACTTGAAAAAGTGGCACCGAGTCGGTGCT has measured Mean relative activity not below 0.4. Thanks!
Found: not fulfilled

Lookup: Hello, I need to know if cr721 (nucleic acid, listed as DNA, chemistry not fully specified) guide: GTTTAAGAGCTAAGCTGGAAACAGCATAGCAAGTTTAAATAAGGCTAGTCCGCTATTAACTTGAAAAAGTGGCACCGAATCGGTGCT has measured Mean relative activity not below 0.4. Thanks!
Found: fulfilled

Lookup: Hello, I need to know if cr873 (nucleic acid, listed as DNA, chemistry not fully specified) guide: GTTTAAGAGCTAAGCTGGAAACAGCATAGCAAGCTTAAATAAGGCTAGTCCGTTATCAACTAGAAATAGTGGCACCGAGTCGGTGCT has measured Mean relative activity not below 0.4. Thanks!
Found: fulfilled

Lookup: Hello, I need to know if cr548 (nucleic acid, listed as DNA, chemistry not fully specified) guide: GTTTAAGAGCTAAGCTGGAAACAGCATAGCAAGTTTAAATAAGGCTAGTCCGTTATCAACTTGAAAAAGTGGCAACGAGTCGGTGCT has measured Mean relative activity not below 0.4. Thanks!
Found: fulfilled

Lookup: Hello, I need to know if cr866 (nucleic acid, listed as DNA, chemistry not fully specified) guide: GTTTAAGAGCTAAGCTGGAAACAGCATAGCAAGTTTAAATAAGGCTAGTCCGTTATCAACTTGAAAAAGTGTCCCCGAGTCGGTGCT has measured Mean relative activity not below 0.4. Thanks!
Found: fulfilled

Lookup: Hello, I need to know if cr527 (nucleic acid, listed as DNA, chemistry not fully specified) guide: GTTTAAGAGCTAAGCTGGAAACAGCATAGCAAGTGTAAATAAGGCTAGTCCGTTATCAACTTGAAAAAGTGGCACCGAGTCGGTGCT has measured Mean relative activity not below 0.4. Thanks!
Found: not fulfilled
